So I've got a bunch of molecules here, and I need their pKi values.
- targetSystem: Aurora-2 (Aurora A) (Homo sapiens)
- Sequence (O14965 whole entry): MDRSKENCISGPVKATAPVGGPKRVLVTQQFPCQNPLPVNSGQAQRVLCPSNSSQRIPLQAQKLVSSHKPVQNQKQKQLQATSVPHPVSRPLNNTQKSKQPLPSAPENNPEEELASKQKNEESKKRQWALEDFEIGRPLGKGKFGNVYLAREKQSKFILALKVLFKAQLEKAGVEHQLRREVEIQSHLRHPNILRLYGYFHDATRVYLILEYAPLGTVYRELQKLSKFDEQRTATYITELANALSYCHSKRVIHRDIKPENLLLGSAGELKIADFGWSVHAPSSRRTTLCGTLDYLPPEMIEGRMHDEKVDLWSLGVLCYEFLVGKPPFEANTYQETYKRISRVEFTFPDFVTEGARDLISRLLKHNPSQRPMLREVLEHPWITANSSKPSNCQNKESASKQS
- protocolSummary: Aurora-2 (Aurora A) inhibition assay, coupled enzyme
- Type: biochemical
- recordedConditions: read-out: Aurora A kinase Ki value
pKi: −log10 of the molar value.

The examples below pair each entry with its known result.
- molecule: "Cc1cnc(Nc2cc(N3CC(F)(C4CC4)C3)nc(Oc3ccc(NC(=O)CC(F)(F)F)cc3)n2)s1 [Compound 181]"
  pKi: "≥ 9.00"
- molecule: "Cc1cc(Nc2cc(N3CC(F)(C4CC4)C3)nc(Sc3ccc(NC(=O)[C@H]4CCCN4C(C)C)cc3)n2)[nH]n1 [Compound 193]"
  pKi: "8.30 to 9.00"
- molecule: "Cc1cc(Nc2cc(N3CC(N4CCOCC4)C3)nc(Sc3ccc(NC(=O)C4(C(F)(F)F)CC4)cc3)n2)[nH]n1 [Compound 191]"
  pKi: "≥ 9.00"
- molecule: "O=C(Nc1ccc(Sc2nc(Nc3cc(CO)[nH]n3)cc(N3CCC3)n2)cc1)c1ccccc1Cl [Compound 75]"
  pKi: "6.70 to 8.30"
- molecule: "CC1=NN=C(Nc2cc(N3CCC3)nc(Sc3ccc(NC(=O)c4ccccc4Cl)cc3)n2)C1 [Compound 5]"
  pKi: "≥ 9.00"

List pKi for every entry below, keeping the order given.
1. Cc1cc(Nc2cc(N3CC(F)(C4CC4)C3)nc(Sc3ccc(C(=O)NCC(F)(F)F)cc3)n2)[nH]n1 [Compound 205]
2. Cc1cc(Nc2cc(N3CC(O)(C4CC4)C3)nc(Sc3ccc4ccccc4c3)n2)n[nH]1 [Compound 131]
3. Cc1cc(Nc2nc(Sc3ccc(NC(=O)CC(F)(F)F)cc3)nc(N3CC(F)(C4CC4)C3)c2F)[nH]n1 [Compound 178]
4. Cc1cc(Nc2cc(N3CCC3)nc(Sc3ccc(NC(=O)c4c(F)cccc4N4CCC4)cc3)n2)n[nH]1 [Compound 8]
5. COc1ccc(C(=O)Nc2ccc(Sc3nc(Nc4cc(C)n[nH]4)cc(N4CCC4)n3)cc2)cc1 [Compound 117]
6. Cc1ccc2cc(Sc3nc(Nc4cc(C)[nH]n4)cc(N4CC(C5CCC(F)C5)C4)n3)ccc2n1 (stereo not drawn) [Compound 198]

1. ≥ 9.00
2. ≥ 9.00
3. ≥ 9.00
4. 8.30 to 9.00
5. 8.30 to 9.00
6. 8.30 to 9.00

List pKi for every entry below, keeping the order given.
1. Cc1cc(Nc2cc(N3CCC3)nc(Sc3ccc(NC(=O)Cc4ccc(Cl)cc4)cc3)n2)n[nH]1 [Compound 36]
2. Cc1cc(Nc2cc(N3CCC3)nc(Sc3ccc(NC(=O)c4ccc(-c5ccccc5)cc4Cl)cc3)n2)[nH]n1 [Compound 83]

["≥ 9.00", "≥ 9.00"]

List pKi for every entry below, keeping the order given.
1. Cc1cc(Nc2cc(N3CC(F)(C4CC4)C3)nc(Sc3ccc4nc(C)ccc4c3)n2)[nH]n1 [Compound 154]
2. Cc1cc(Nc2cc(N3CC(O)(C4CC4)C3)nc(Sc3ccc(N4CCCC4=O)cc3)n2)n[nH]1 [Compound 133]

1. ≥ 9.00
2. ≥ 9.00

###

So I've got a bunch of compounds here, and I need their pKi values.
- targetSystem: Aurora-1 (Aurora B) (Homo sapiens)
- Sequence (Q96GD4 whole entry): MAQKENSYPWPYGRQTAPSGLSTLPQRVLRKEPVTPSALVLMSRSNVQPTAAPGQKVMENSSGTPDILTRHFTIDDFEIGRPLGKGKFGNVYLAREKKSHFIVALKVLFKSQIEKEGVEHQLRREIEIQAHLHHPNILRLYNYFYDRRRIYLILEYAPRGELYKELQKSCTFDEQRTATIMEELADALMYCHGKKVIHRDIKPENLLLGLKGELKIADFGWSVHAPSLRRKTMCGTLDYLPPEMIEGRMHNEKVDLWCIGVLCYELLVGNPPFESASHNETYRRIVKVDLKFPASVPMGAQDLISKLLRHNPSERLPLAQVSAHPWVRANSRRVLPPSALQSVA
- protocolSummary: Aurora-1 (Aurora B) inhibition assay (radiometric)
- Assay type: biochemical
- recordedConditions: read-out: Aurora B kinase Ki value
pKi: −log10 of the molar value.

The examples below pair each entry with its known result.
- compound: "CCC(=O)Nc1ccc(Sc2nc(Nc3cc(C)n[nH]3)cc(N3CC(C)(N4CCOCC4)C3)n2)cc1 [Compound 88]"
  pKi: "≥ 8.00"
- compound: "Cc1cc(Nc2cc(N3CC(C)(C#N)C3)nc(Sc3ccc(NC(=O)CC(F)(F)F)cc3)n2)[nH]n1 [Compound 169]"
  pKi: "≥ 8.00"
- compound: "Cc1cnc(Nc2cc(N3CC(O)C3)nc(Sc3ccc(NC(=O)C4CC4)cc3)n2)s1 [Compound 3]"
  pKi: "≥ 8.00"
- compound: "Cc1cc(Nc2cc(N3CC(C)(O)C3)nc(Sc3ccc(NC(=O)c4ccccc4C(F)(F)F)cc3)n2)[nH]n1 [Compound 115]"
  pKi: "≥ 8.00"
- compound: "Cc1cc(Nc2cc(N3CCC3)nc(Sc3ccc(NC(=O)c4cccnc4C)cc3)n2)[nH]n1 [Compound 63]"
  pKi: "7.30 to 8.00"

List pKi for every entry below, keeping the order given.
1. Cc1cc(Nc2cc(N3CC(F)(C4CC4)C3)nc(Sc3ccc(NC(=O)C4(C)CC4)cc3)n2)[nH]n1 [Compound 203]
2. Cc1cc(Nc2cc(N3CCC3)nc(Sc3ccc(NC(=O)CC(F)(F)F)cc3)n2)n[nH]1 [Compound 40]
3. Cc1cc(Nc2cc(N3CCC3)nc(Sc3ccc(NC(=O)Cc4ccccc4)cc3)n2)n[nH]1 [Compound 35]
4. Cc1cc(Nc2cc(N3CC(O)(C4CC4)C3)nc(Sc3ccc4nc(C(F)(F)F)n(C)c4c3)n2)[nH]n1 [Compound 155]

5.70 to 7.30
≥ 8.00
7.30 to 8.00
≥ 8.00

List pKi for every entry below, keeping the order given.
1. Cc1cc(Nc2cc(N3CC(F)(C4CC4)C3)nc(Sc3cnc4ccccc4c3)n2)[nH]n1 [Compound 206]
2. Cc1cc(Nc2cc(N3CCC3)nc(Sc3ccc(NC(=O)c4sccc4Cl)cc3)n2)n[nH]1 [Compound 43]
3. Cc1cc(Nc2cc(N3CCC3)nc(Sc3ccc(N(C)C(=O)c4ccccc4F)cc3)n2)n[nH]1 [Compound 10]
4. Cc1cc(Nc2cc(C(=O)N3CCC3)nc(Sc3ccc(NC(=O)c4ccccc4Cl)cc3)n2)n[nH]1 [Compound 62]
5. Cc1cc(Nc2cc(N3CCC3)nc(Sc3ccc(NC(=O)c4cccc(CN5CCC5)c4)cc3)n2)[nH]n1 [Compound 140]
6. Cc1cc(Nc2cc(N3CC(O)(C4CC4)C3)nc(Sc3ccc4nc(C)ccc4c3)n2)[nH]n1 [Compound 153]
7. CCC(=O)Nc1ccc(Sc2nc(CCN3CCC3)cc(Nc3cc(C)n[nH]3)n2)cc1 [Compound 197]
8. CCC(=O)Nc1ccc(Sc2nc(Nc3cc(C)n[nH]3)cc(N3CC(OC(C)(C)C)C3)n2)cc1 [Compound 67]

["7.30 to 8.00", "7.30 to 8.00", "5.70 to 7.30", "5.70 to 7.30", "5.70 to 7.30", "≥ 8.00", "5.70 to 7.30", "5.70 to 7.30"]

###

So I've got a bunch of molecules here, and I need their pKi values.
- targetSystem: JAK3 (Homo sapiens)
- Sequence (P52333 1-1124): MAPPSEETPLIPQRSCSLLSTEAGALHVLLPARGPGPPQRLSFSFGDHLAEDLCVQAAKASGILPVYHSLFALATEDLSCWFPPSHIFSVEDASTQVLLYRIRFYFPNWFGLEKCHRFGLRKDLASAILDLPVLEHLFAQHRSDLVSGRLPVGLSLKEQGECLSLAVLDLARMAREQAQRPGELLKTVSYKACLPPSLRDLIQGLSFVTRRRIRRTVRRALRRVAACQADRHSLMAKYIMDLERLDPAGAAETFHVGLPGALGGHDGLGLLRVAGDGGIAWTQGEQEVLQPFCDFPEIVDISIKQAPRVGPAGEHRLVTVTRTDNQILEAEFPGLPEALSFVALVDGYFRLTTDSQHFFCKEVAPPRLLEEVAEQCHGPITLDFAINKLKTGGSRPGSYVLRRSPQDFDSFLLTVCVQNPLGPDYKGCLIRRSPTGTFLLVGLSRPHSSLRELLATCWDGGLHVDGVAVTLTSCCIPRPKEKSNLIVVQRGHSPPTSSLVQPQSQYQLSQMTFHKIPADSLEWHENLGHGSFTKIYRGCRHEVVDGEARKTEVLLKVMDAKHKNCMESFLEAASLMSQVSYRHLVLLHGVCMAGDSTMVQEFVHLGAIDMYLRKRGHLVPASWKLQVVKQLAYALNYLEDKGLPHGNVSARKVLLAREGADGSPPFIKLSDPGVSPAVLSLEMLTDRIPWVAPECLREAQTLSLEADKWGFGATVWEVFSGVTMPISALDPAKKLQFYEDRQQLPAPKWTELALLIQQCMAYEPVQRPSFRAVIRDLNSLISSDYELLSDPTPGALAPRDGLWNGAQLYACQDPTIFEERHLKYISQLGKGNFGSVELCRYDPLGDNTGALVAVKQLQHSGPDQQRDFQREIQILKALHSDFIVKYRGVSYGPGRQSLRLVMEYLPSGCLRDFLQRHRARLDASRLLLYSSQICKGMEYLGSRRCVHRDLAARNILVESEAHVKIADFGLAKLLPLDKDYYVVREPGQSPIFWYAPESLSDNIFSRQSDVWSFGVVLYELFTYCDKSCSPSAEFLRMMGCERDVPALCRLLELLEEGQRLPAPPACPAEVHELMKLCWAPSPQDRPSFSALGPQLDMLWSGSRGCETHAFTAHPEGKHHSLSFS
- protocolSummary: biochemical
- recordedConditions: read-out: JAK3 Ki value
pKi: −log10 of the molar value.

- molecule: "Cc1cc(Nc2cc(N3CC(N4CCCC4)C3)nc(Sc3ccc(NC(=O)CC(F)(F)F)cc3)n2)[nH]n1"
  pKi: "6.30 to 8.00"

List pKi for every entry below, keeping the order given.
1. Cc1cc(Nc2cc(N3CC(N4CCOCC4)C3)nc(Sc3ccc(NC(=O)CC(F)(F)F)cc3)n2)[nH]n1
2. Cc1cc(Nc2cc(N3CC(O)(C4CC4)C3)nc(Sc3ccc(NC(=O)C4CC4)c(F)c3)n2)[nH]n1

1: ≥ 8.00; 2: 6.30 to 8.00

List pKi for every entry below, keeping the order given.
1. Cc1cc(Nc2cc(N3CCC3)nc(Sc3ccc(C(=O)Nc4ccccc4Cl)cc3)n2)[nH]n1
2. Cc1cc(Nc2cc(N3CCC3)nc(Sc3ccc(NC(=O)c4nccn4C)cc3)n2)n[nH]1
3. Cc1cc(Nc2cc(N3CC(C)(C(C)(C)F)C3)nc(Sc3ccc(NC(=O)CC(F)(F)F)cc3)n2)[nH]n1

1. 6.30 to 8.00
2. 6.30 to 8.00
3. ≥ 8.00

List pKi for every entry below, keeping the order given.
1. Cc1cc(Nc2cc(N3CCC3)nc(Sc3ccc(NC(=O)CC(F)(F)F)cc3)n2)n[nH]1
2. Cc1cc(Nc2cc(N3CC(C)(F)C3)nc(Sc3ccc(NC(=O)CC(F)(F)F)cc3)n2)n[nH]1
3. CCC(=O)Nc1ccc(Sc2nc(Nc3cc(C)n[nH]3)cc(N3CC(C)(N4CCOCC4)C3)n2)cc1
4. Cc1cc(Nc2cc(N3CCC3)nc(Sc3ccc(NC(=O)c4ccc(F)cc4F)cc3)n2)n[nH]1
5. Cc1cc(Nc2cc(N3CC(F)(C4CC4)C3)nc(Sc3ccc4ccn(CC(F)(F)F)c(=O)c4c3)n2)[nH]n1
6. Cc1cc(Nc2cc(N3CC(N4CC[C@H](F)C4)C3)nc(Sc3ccc(NC(=O)CC(F)(F)F)cc3)n2)[nH]n1
7. COC1CN(c2cc(Nc3cc(C)n[nH]3)nc(Sc3ccc(NC(=O)c4ccccc4C(F)(F)F)cc3)n2)C1
8. CCOC1CN(c2cc(Nc3cc(C)[nH]n3)nc(Sc3ccc(NC(=O)c4ccccc4Cl)cc3)n2)C1

1. 6.30 to 8.00
2. 6.30 to 8.00
3. ≥ 8.00
4. 6.30 to 8.00
5. 6.30 to 8.00
6. ≥ 8.00
7. 6.30 to 8.00
8. ≥ 8.00

Return reported pKi; argument: Cc1cc(Nc2cc(N3CCC3)nc(Sc3ccc(NC(=O)C4CC4(F)F)cc3)n2)[nH]n1 (stereo not drawn)
≥ 8.00
